- Tested on: Vero E6 infected with SARS-CoV-2
- MEASUREMENT DESCRIPTION: inhibition of SARS-CoV-2 cytopathic effect; higher = more antiviral protection, active = above 15
- CONDITION INFO: 1 nM; 48 h
// values below are reported inhibition of SARS-CoV-2 cytopathic effect
EXPERIMENTAL READOUT: inhibition of SARS-CoV-2 cytopathic effect (%)

OC(CN1CCN(c2cccc(Cl)c2)CC1)C(c1ccccc1)c1ccccc1 (centres undefined) : 2.69
Cc1cc(C(=O)Nc2nc3cccc(Cl)c3n2[C@@H]2CCCCN(C(=O)/C=C/CN(C)C)C2)ccn1 : 2.52
CCn1cc(C(=O)O)c(=O)c2cc(F)c(N3CCNCC3)nc21 : 4.58
Cc1cc2c(cc1C(F)(F)F)N(C(=O)Nc1ccc(Oc3cccnc3C)nc1)CC2 : 0.45
N#Cc1ccc(-c2csc(NN=C3CCCC3)n2)cc1 : 0.9
C[C@H](N[C@@H](CCc1ccccc1)C(=O)O)C(=O)N1Cc2ccccc2C[C@H]1C(=O)O : -0.56
Cc1c(N2C(=O)[C@@H]3[C@H](O)CCN3C2=O)ccc(C#N)c1Cl : 2.38
COc1ccc(CCNCC(O)COc2cccc(C)c2)cc1OC (centres undefined) : -3.29
Nc1nc(=O)n([C@@H]2O[C@H](CO)[C@@H](O)[C@@H]2F)cc1I : -1.38

---

- Tested on: Vero E6 infected with SARS-CoV-2
- MEASUREMENT DESCRIPTION: inhibition of SARS-CoV-2 cytopathic effect; higher = more antiviral protection, active = above 15
- CONDITION INFO: 10000 nM; 48 h
EXPERIMENTAL READOUT: inhibition of SARS-CoV-2 cytopathic effect (%)

O=S(=O)(c1ccccc1)c1cnc2c(N3CCNCC3)cccc2c1 : 1.43
O=S(=O)(N[C@H]1CC[C@@](c2cc(F)ccc2F)(S(=O)(=O)c2ccc(Cl)cc2)CC1)C(F)(F)F : -2.01
CCN(CC)CCCC(C)Nc1nc(C)cc(Nc2ccc3nc(C)cc(N)c3c2)n1 (centres undefined) : 0.17
CC(O)(C(=O)Nc1ccc(S(=O)(=O)c2ccccc2)cc1)C(F)(F)F (centres undefined) : 14.1
O=C(COP(=O)(O)O)[C@@H](O)[C@H](O)[C@H](O)COP(=O)(O)O [fosfructose] : -1.68
c1ccc(-c2oc3ncnc(NC[C@@H]4CCCO4)c3c2-c2ccccc2)cc1 : 1.78
N[C@H]1C[C@@H]1c1ccc(-c2cccc(O)c2)cc1 : -0.24
CNC(=O)[C@@H](c1ccccc1)N1CCc2cc(OC)c(OC)cc2[C@@H]1CCc1ccc(C(F)(F)F)cc1 [almorexant] : 1.06
CO[C@H]1CC[C@H](N(c2cc(C3=CCCCC3)sc2C(=O)O)C(=O)[C@H]2CC[C@H](C)CC2)CC1 : 0.21

---

// values below are reported inhibition of SARS-CoV-2 cytopathic effect
- System: Vero E6 infected with SARS-CoV-2
- MEASUREMENT DESCRIPTION: inhibition of SARS-CoV-2 cytopathic effect; higher = more antiviral protection, active = above 15
- CONDITION INFO: 10000 nM; 48 h
EXPERIMENTAL READOUT: inhibition of SARS-CoV-2 cytopathic effect (%)

O=C(O)CNC(=O)C(CS)Cc1ccccc1 (centres undefined) : -6.09
CCCCCCCCCCCCCCCC(=O)OC[C@H](O)[C@H]1OC(=O)C(O)=C1O [L-ascorbyl-6-palmitate] : -0.63
Nc1c(-c2cccc(C(F)(F)F)c2)nsc1C(=O)O : 1.39
CC(C)(C)NC[C@H](O)COc1nsnc1N1CCOCC1 : 0.96
Cc1ccc(-n2nc(C(C)(C)C)cc2NC(=O)Nc2ccc(OCCN3CCOCC3)c3ccccc23)cc1 : 8.03
C=CCN1CCc2cc(O)c(O)cc2[C@H](c2ccccc2)C1 : -2.9
CC(C)C[C@@H](C=O)NC(=O)[C@H](CC(C)C)NC(=O)[C@H](CC(C)C)NC(=O)OCc1ccccc1 : 55.5
CC(=O)[C@@]1(O)CC[C@H]2[C@@H]3C[C@H](C)C4=CC(=O)C=C[C@]4(C)[C@@]3(F)[C@@H](O)C[C@@]21C : 1.57
CC(C)c1nnc(-c2ccc(-c3ccccc3)nc2)n1-c1cccc2nonc12 : -1.7

---

- System: Vero E6 infected with SARS-CoV-2
- MEASUREMENT DESCRIPTION: morphology score (similarity to uninfected cells); higher = more like uninfected cells
- CONDITION INFO: 24 h
Could you label it 1.0 if measured morphology score is 0.07 or higher, and 0.0 otherwise?

C=CC(N)CCC(=O)O (stereo not drawn) [vigabatrin] (10 µM) : 1.0
C[C@H](N[C@@H](CCc1ccccc1)C(=O)O)C(=O)N1CCC[C@H]1C(=O)O [enalaprilat] (10 µM) : 0.0
C[C@H](C[C@H](N)C(=O)O)C(=O)O (10 µM) : 0.0
O=C(O)[C@H](O)[C@@H](O)[C@H](O[C@@H]1O[C@H](CO)[C@H](O)[C@H](O)[C@H]1O)[C@H](O)CO [maltobionic-acid] (10 µM) : 1.0
CCS(=O)(=O)c1cccc(-c2cc(C(=O)NC3CCN(C)CC3)c(C)c3[nH]c4ncc(C)cc4c23)c1 (0.833333 µM) : 1.0
CNCCC=C1c2ccccc2C=Cc2ccccc21 [norcyclobenzaprine] (10 µM) : 1.0
Oc1cc2c(cc1O)[C@@H]1c3ccc(O)c(O)c3OC[C@]1(O)C2 [hematoxylin] (10 µM) : 0.0
NC(=O)c1cnccn1 [pyrazinamide] (10 µM) : 0.0

---

- Tested on: Vero E6 infected with SARS-CoV-2
- MEASUREMENT DESCRIPTION: inhibition of SARS-CoV-2 cytopathic effect; higher = more antiviral protection, active = above 15
- CONDITION INFO: 100 nM; 48 h
EXPERIMENTAL READOUT: inhibition of SARS-CoV-2 cytopathic effect (%)

NC(=O)c1nc(F)cnc1O [Favipiravir] : -0.55
COc1ccc(-c2c(C)c(C(=O)NN3CCCCC3)nn2-c2ccc(Cl)cc2Cl)cc1 : -5.55
CC(C(=O)O)c1cccc(C(=O)c2ccccc2)c1 (centres undefined) : -0.91
O=C(O)CCN(O)C(=O)CCCCCCCCC1CC1 : 1.09
COc1cc2c(c(OC)c1OC)-c1ccc(OC)c(=O)cc1[C@@H](NC(C)=O)CC2 : 0.8
O=C(Nc1ccc(S(=O)(=O)Nc2ccccc2Cl)c(Cl)c1)c1ccccn1 : -1.92
COc1ccc([C@]2(C#N)CC[C@@H](C(=O)O)CC2)cc1OC1CCCC1 : -2.36
Cc1cc(C#N)cc(C)c1Oc1nc(Nc2ccc(C#N)cc2)nc(N)c1Br : -2.15
COc1ccc2c(Oc3ccc(NC(=O)c4c(C)n(CC(C)(C)O)n(-c5ccccc5)c4=O)nc3)ccnc2c1 : -0.28
C[C@H](C[C@H](N)C(=O)O)C(=O)O : -1.73
Cc1cc(O)cc(C)c1Cl : -1.3
COc1ccc(CCNCc2ccc(OCc3ccc(Cl)nc3)c(OC)c2)cc1OC : -0.05
O=C(O)C1=C[C@@H](O)[C@@H](O)[C@H](O)C1 : 0.89
COc1cc(C(=O)N2CCC(N3CCN(C)CC3)CC2)ccc1Nc1ncc2c(n1)N(C)c1ccccc1C(=O)N2C : 2.57
Clc1ccc(C(Cn2ccnc2)OCc2csc3c(Cl)cccc23)c(Cl)c1 (centres undefined) : -0.32
Cc1cccc(C)c1NC(=O)c1ccc(N)cc1 [ameltolide] : 0.37
CO[C@H]1/C=C\C=C(/C)C(=O)NC2=CC(=O)C(NCCN(C)C)=C(C[C@@H](C)C[C@H](OC)[C@H](O)[C@@H](C)/C=C(\C)[C@@H]1OC(N)=O)C2=O : 0.62
OC[C@H]1O[C@H](O[C@]2(CCl)O[C@H](CCl)[C@@H](O)[C@@H]2O)[C@H](O)[C@@H](O)[C@H]1Cl : 0.66
OCCN1CCN(CCCN2c3ccccc3C=Cc3ccccc32)CC1 : 1.62
C[C@H](NCc1ccc(OCc2cccc(F)c2)cc1)C(N)=O [safinamide] : 2.52
O=[N+]([O-])c1cc([As](=O)(O)O)ccc1O : -4.83
Cc1cn2c(N)c(Cl)cc(C(=O)NCC3CCN(CC(C)C)CC3)c2n1 : 2.96
O=[N+]([O-])c1ccc(O)c([N+](=O)[O-])c1 : 5.04
Cc1ccc(C(C)C)c(O)c1 : -2.75
Cn1ncc(Cl)c1-c1cc(C(=O)N[C@H](CN)Cc2cccc(F)c2)sc1Cl : -0.95
CS(=O)(=O)Nc1c(O)ccc2c1CCC[C@H]2C1=NCCN1 : -1.29
Cc1nn(-c2ccccc2)c(C)c1/C=N/N1CCN(Cc2ccccc2)CC1 : -0.84
O=C(O)CCCC[C@@H]1CCSS1 : -1.56
C[C@]12CCC(=O)C[C@@H]1CC[C@@H]1[C@@H]2CC[C@]2(C)C=CC[C@@H]12 : -1.17
CC(CNC1CCCCC1)OC(=O)c1ccccc1 (centres undefined) : -0.1
Cn1c(NC[C@@H](N)Cc2ccccc2)nc(-c2ccncc2)c(-c2ccc3ccccc3c2)c1=O : -0.08
CCN(c1cc(C#CCN2CCOCC2)cc(C(=O)NCc2c(C)cc(C)[nH]c2=O)c1C)[C@H]1CC[C@H](N(C)CCOC)CC1 : 3.36
N#Cc1ncccn1 : 4.71
Cn1cc(-c2ccc(S(=O)(=O)n3ccc(/C=C/C(=O)Nc4ccccc4N)c3)cc2)cn1 : -0.51
COC1=C(OC)C(=O)C(CCCCCCCCCCO)=C(C)C1=O : -0.1
CN1CCCC(CN2c3ccccc3Sc3ccccc32)C1 (centres undefined) : 3.56
Cc1ncc(C[n+]2csc(CCO)c2C)c(N)n1 : -1.61
O=C(O)[C@H]1CN(C/C=C/P(=O)(O)O)CCN1 : 0.17
O=c1[nH]c(=O)n([C@H]2CCCO2)cc1F (racemic) : 6.11

Reference source for all entries: the supplement of paper PMC13380429
